test: yeast display, Sf9 membrane polyspecificity reagent, FACS + sequencing; frameworks hold sequencing errors
metric: polyreactivity (PSR sort gate)

{"residues": "QVQLVESRGGLVQAGGSLRLSCAPSGIIFVRYAMGWYRQAPGKETELVAAISSSGGSTYYADSVKGRFTISRDNAKKTVYLQMNSLKPEDTAVYYCNARHRQWARGYWGQGTQVTVSS", "metric": "polyreactivity (PSR sort gate)", "endpoint-result": "high polyreactivity"}
{"residues": "QVQLVESGGGLVQAGCSLRLSCAASGFTFRYYAMGSYRQAPGKERELVSAISQSGGLTFYADSVKGRFTISRDNAKITVYLQMNSLKPVDTAVFYCAAGRRTYPSKYGSWGQGSQVTVSS", "metric": "polyreactivity (PSR sort gate)", "endpoint-result": "high polyreactivity"}
{"residues": "QVQLVESGGGLVQAGGSLRLSCAASGITLQFYAIGWYRQAPGKERELVAAISISGGRTYYADSVKGRFTISRDNAKNTVYLQMNSLKPEDTAVYYCAAYLQRAYRYGYWGQGTQVTVSS", "metric": "polyreactivity (PSR sort gate)", "endpoint-result": "high polyreactivity"}
{"residues": "QVQLVESGGGLVQAGGSLRLICASSGLNFVVYAMGRSRPAPGKERELVAAISSGGGSTYYADSVKGRFTISRDNAKNSVYLQMNSQKPEDTEVYYCNAVDKLYYWRYDYWRQGTQVTVSS", "metric": "polyreactivity (PSR sort gate)", "endpoint-result": "low polyreactivity"}
{"residues": "QVQLVESGGGLVQAGGSLRLSCAASGRTFYKNTMGWYREAPGKEREMVATISQRGGSTYYADSVKGRFTISRDNAKNTVFLQMNSLKPEDTAVYYCYARHYYIWWRSPTRTAMNYWGQGTQVTVSS", "metric": "polyreactivity (PSR sort gate)", "endpoint-result": "high polyreactivity"}
{"residues": "QVQLVESGGGFVQAGGSLRLSCAASGSTFSYYAMGWYRQAPGKERELVAAINWRGTNTYYADSVKGRFTISRDNAKNTVYLQMNSLKPEDTAVYYCNKESYRSSSPYNYWGQGTQVTVSS", "metric": "polyreactivity (PSR sort gate)", "endpoint-result": "high polyreactivity"}
{"residues": "QVQLVESGGGLVQAGGSLRLSCAASGSIFRRNAMGWYRQAPGKERELVAAISSSGNTYYADSVKGRFTISRDNAKNTVYLQMNSLKPEDTAVYYCAADGRNYYGSYDYWGQGTQVTVSS", "metric": "polyreactivity (PSR sort gate)", "endpoint-result": "low polyreactivity"}
{"residues": "QVQLVESGGCLVQAGGSLRLSCAASGLTFRGYAKGWYRPAPGKERELVAAITSSAGRTNYADSVKGRFTISRDNAKNTVYLQMNSLNPEDTAVYYCAAAHSYTTRWGYYKFNYWGQGTQVSVSS", "metric": "polyreactivity (PSR sort gate)", "endpoint-result": "high polyreactivity"}
{"residues": "QVQLVDSGGGLVQAGGSLRLSCAASGSTFRGNAMGWSRQAPGKERELVAAISASGGRTYYADSVKGRFTISRDNAKNTVYLQMNSLKPEETAVYYCAVRDQTDKVPFYYWGQGTQVSVSS", "metric": "polyreactivity (PSR sort gate)", "endpoint-result": "high polyreactivity"}
{"residues": "QVQLVDSGGGLVQAGGSLRLSSAASGSTFAVNAMGWYIQARGKERELVAAISDSDGSTFYADSVKGRFTISRDNAKNTVYLQMNSLKPEDTAVYYCAATVYRVFRYSYLYYYWGQGTQVTVSS", "metric": "polyreactivity (PSR sort gate)", "endpoint-result": "low polyreactivity"}
{"residues": "QVQLVESGGGLVQAGGSLRLSCAASGRIFGSYTMGWYRQAPGKERELVAAISFSGARTRYADSVKGRFTISRDNANNTVYLQMNSLKPEDTAVYYCAARFTGGKYDYWGQGTQVTVSS", "metric": "polyreactivity (PSR sort gate)", "endpoint-result": "high polyreactivity"}
{"residues": "QVQLVESGGGLVQAGGSLRLSCAASGSTVHYMGWYRPAPGKERELVAGISWSGGSTYYADSVKGRFTISRDNAKNTVYLQMTSLKPEDTAVYYCAADIKIRLYTTGDYWGQGTQVTVSS", "metric": "polyreactivity (PSR sort gate)", "endpoint-result": "low polyreactivity"}
{"residues": "QVQLVESGGGLVQAGGSLRLSCAASGFIFYGYTMGWYRQAPGKERELVAAITFSGGRTYYADSVKGRFTISRDNAKNTVYLQMNSLKPEDTAVYYCNARVVNYFRPRTGAREYDYWGQGTQVTVSS", "metric": "polyreactivity (PSR sort gate)", "endpoint-result": "high polyreactivity"}
{"residues": "QVQLVESGGGLVQAGGSLRLSCAASGRNFSWNAMGWYRQAPGKERELVAAISRGASTNYADSVKGRFTISRDNAKNTDYLQMNSLKPEDTAVYYCNAVGPSLIYTYELSPTFDYWGQGTQVTVSS", "metric": "polyreactivity (PSR sort gate)", "endpoint-result": "low polyreactivity"}
{"residues": "QVQLVESGGGLVQAGGSLRLSCAASASTFAGYVMGWYRPAPGKERELVAAISVSGGSTDYADSVKGRFTISRDNAKNTVYLQMNSLKPEDTAVYYCAAVYVRNQWWRNYYWGQGTQVTVSS", "metric": "polyreactivity (PSR sort gate)", "endpoint-result": "low polyreactivity"}
{"residues": "QVQLVESGGGLVQAGGSLRLSCAASGRTFYFYTMGWYRQAPGKERELVATINWSGTSTYYADSVKGRFTISRDNAKNTVYLQMNSLKPEDTAVYYCAVRGGRYKYGYDYWGQGSQVTVSS", "metric": "polyreactivity (PSR sort gate)", "endpoint-result": "high polyreactivity"}
{"residues": "QVQLVESGGGLVQAGGSLRLSCAASGSIFNSYAMGWYIQAPGKERELFADITSSGGSTYYADSVKGRFTISRDNAKNTVYLQMNCLKPEDTAVYYCAASSPAFYGLRYNYWGQGTQVTVSS", "metric": "polyreactivity (PSR sort gate)", "endpoint-result": "low polyreactivity"}
{"residues": "QVQLVESGGGLVQAGGSLRLSCAASGSIYARNAMGWYRQAPGKERELVAAIRYSGGSTYYADSVKGRFTISRDNAKNTVYLQMNSLKPEDTAVYYCAARWGVFGYYYWGQGTQVTVSS", "metric": "polyreactivity (PSR sort gate)", "endpoint-result": "high polyreactivity"}
{"residues": "QVQLVESGGGLVQAGGSLRLSCAASGFTFVIYAMGWYRQAPGKERELVAAIRSGGRTYYADSVKGRFTISRDNAKNTVYLQMNSLKPEDTAVYYCAAVPALKWYGYEYWGQGTQVTVSS", "metric": "polyreactivity (PSR sort gate)", "endpoint-result": "high polyreactivity"}
{"residues": "QVQLVESGGGLVQAGGSLRLSCAASGITISGYAMGWYRQAPGKERELVAAISRRGGSTYYADSVKGRFTISRDNAKNTVYLQMNSLKPEDTAVYYCARYPSRNYNYWGQGTQVTVSS", "metric": "polyreactivity (PSR sort gate)", "endpoint-result": "high polyreactivity"}
{"residues": "QVQLVESGGGLVQAGGSLRLSCAASGRIFAYYAMGWYRQAPGKERELVASISSSGVSTYYADSVKGRFTISRDNAKNTVYLQMNSLKPEDTAVYYCAARQFSWDSQRYRHRYDYWGQGTQVTVSS", "metric": "polyreactivity (PSR sort gate)", "endpoint-result": "high polyreactivity"}

The reported numbers originate from the nanobody polyreactivity screen of Harvey et al. (2022).
